Assay: human clinical trial, pharmacokinetics of Tablet Formulation 6 and Tablet Formulation 7, fasted and fed
Conditions: in vivo, administered as Tablet Formulation 7, single dose of two tablets, Fed (High-Fat Meal), GM
OBSERVATION TYPE: Cmax

>>> result_value("CC(C)OC(=O)[C@@H](C)NP(=O)(OC[C@H]1O[C@@H](n2ccc(=O)[nH]c2=O)[C@](C)(Cl)[C@@H]1O)Oc1ccccc1 (stereo partly shown) [Compound I]")
"1740 nM"

====

Test: human clinical trial, pharmacokinetics of Tablet Formulation 6 and Tablet Formulation 7, fasted and fed
Details: in vivo, administered as Tablet Formulation 6, single dose of two tablets, Fasted, GM
OBSERVATION TYPE: AUC(0-inf) (µM·h)

>>> result_value("CC(C)OC(=O)[C@@H](C)NP(=O)(OC[C@H]1O[C@@H](n2ccc(=O)[nH]c2=O)[C@](C)(Cl)[C@@H]1O)Oc1ccccc1 (stereo partly shown)")
2.73

====

Experiment: solubility in simulated fasted-state intestinal fluid
Assay type: physicochemical
Conditions: fassif
OBSERVATION TYPE: solubility

>>> result_value("C=C[C@@H]1C[C@]1(NC(=O)[C@@H]1C[C@@H]2CN1C(=O)[C@H](C(C)(C)C)NC(=O)O[C@@H]1C[C@H]1CCCCCc1nc3ccc(OC)cc3nc1O2)C(=O)NS(=O)(=O)C1CC1 [Compound III, hydrate]")
"< 7 µg/mL"

====

Experiment: human clinical trial, pharmacokinetics of Tablet Formulation 6 and Tablet Formulation 7, fasted and fed
Conditions: in vivo, oral, administered as Tablet Formulation 7, single dose of two tablets, Fasted, GM
OBSERVATION TYPE: Cmax (nM)

>>> result_value("C=C[C@@H]1C[C@]1(NC(=O)[C@@H]1C[C@@H]2CN1C(=O)[C@H](C(C)(C)C)NC(=O)O[C@@H]1C[C@H]1CCCCCc1nc3ccc(OC)cc3nc1O2)C(=O)NS(=O)(=O)C1CC1 [Compound III, hydrate]")
31.2
>>> result_value("COC(=O)N[C@H](C(=O)N1CCC[C@H]1c1ncc(-c2cc(F)c3c(c2)O[C@@H](c2cnc(C4CC4)s2)n2c-3cc3cc(-c4cnc([C@@H]5CCCN5C(=O)[C@@H](NC(=O)OC)C(C)C)[nH]4)ccc32)[nH]1)C(C)C")
77.2

====

Test: human clinical trial, pharmacokinetics of Tablet Formulation 6 and Tablet Formulation 7, fasted and fed
Settings: in vivo, oral, administered as Tablet Formulation 6, single dose of two tablets, Fed (High-Fat Meal), GM
OBSERVATION TYPE: Cmax (nM)

>>> result_value("COC(=O)N[C@H](C(=O)N1CCC[C@H]1c1ncc(-c2cc(F)c3c(c2)O[C@@H](c2cnc(C4CC4)s2)n2c-3cc3cc(-c4cnc([C@@H]5CCCN5C(=O)[C@@H](NC(=O)OC)C(C)C)[nH]4)ccc32)[nH]1)C(C)C")
68.1
>>> result_value("C=C[C@@H]1C[C@]1(NC(=O)[C@@H]1C[C@@H]2CN1C(=O)[C@H](C(C)(C)C)NC(=O)O[C@@H]1C[C@H]1CCCCCc1nc3ccc(OC)cc3nc1O2)C(=O)NS(=O)(=O)C1CC1 [Compound III, hydrate]")
44.3

====

Assay: human clinical trial, pharmacokinetics of Tablet Formulation 6 and Tablet Formulation 7, fasted and fed
Settings: in vivo, oral, administered as Tablet Formulation 7, single dose of two tablets, Fasted, GM
OBSERVATION TYPE: AUC(0-inf) (µM·h)

>>> result_value("C=C[C@@H]1C[C@]1(NC(=O)[C@@H]1C[C@@H]2CN1C(=O)[C@H](C(C)(C)C)NC(=O)O[C@@H]1C[C@H]1CCCCCc1nc3ccc(OC)cc3nc1O2)C(=O)NS(=O)(=O)C1CC1 [Compound III, hydrate]")
0.598
>>> result_value("COC(=O)N[C@H](C(=O)N1CCC[C@H]1c1ncc(-c2cc(F)c3c(c2)O[C@@H](c2cnc(C4CC4)s2)n2c-3cc3cc(-c4cnc([C@@H]5CCCN5C(=O)[C@@H](NC(=O)OC)C(C)C)[nH]4)ccc32)[nH]1)C(C)C [Compound II]")
1.31
